Source: patent US20210246166A1

Hi there, I'd appreciate the recorded human MASP2 IC50 for every entry that follows.
STUDY TARGET: recombinant human MASP2 active protease (amino acids 297-686, C-terminal His Tag) (human, UniProt O00187 297-686)
Sequence (O00187 other isoform, or with tags, fused parts or gaps limits assumed): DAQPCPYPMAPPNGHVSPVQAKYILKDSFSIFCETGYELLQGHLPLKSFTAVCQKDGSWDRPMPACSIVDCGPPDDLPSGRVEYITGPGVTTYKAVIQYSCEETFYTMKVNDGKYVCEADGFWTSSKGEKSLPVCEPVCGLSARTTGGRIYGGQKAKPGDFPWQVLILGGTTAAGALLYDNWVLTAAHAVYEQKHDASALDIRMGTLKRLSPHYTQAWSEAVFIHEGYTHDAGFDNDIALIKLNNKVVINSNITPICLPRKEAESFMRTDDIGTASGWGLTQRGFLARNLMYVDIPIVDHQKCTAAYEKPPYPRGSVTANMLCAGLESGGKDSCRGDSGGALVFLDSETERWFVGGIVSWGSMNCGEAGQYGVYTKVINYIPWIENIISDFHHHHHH
TEST NAME: cell-based or functional assay
Bridge positions count the residues as written; N and C are the ends. Square brackets hold non-standard residues; d marks the D form. Ends that are not written are not given here. Oic = O=C(O)[C@@H]1C[C@@H]2CCCC[C@@H]2N1; tBuAla = CC(C)(C)C[C@H](N)C(=O)O; Pen = CC(C)(S)[C@H](N)C(=O)O; NMeC = CN[C@@H](CS)C(=O)O; NMeA = CN[C@@H](C)C(=O)O; Nva = CCC[C@H](N)C(=O)O
I only need the number, in nM, no unit after it.

Supply measured human MASP2 IC50 of LICSRS[tBuAla]PPI[NMeC]I-NH2 (disulfide 3-11; N-terminus assumed; SMILES CC[C@H](C)[C@H](NC(=O)[C@@H]1CSSC[C@H](NC(=O)[C@@H](NC(=O)[C@@H](N)CC(C)C)[C@@H](C)CC)C(=O)N[C@@H](CO)C(=O)N[C@@H](CCCNC(=N)N)C(=O)N[C@@H](CO)C(=O)N[C@@H](CC(C)(C)C)C(=O)N2CCC[C@H]2C(=O)N2CCC[C@H]2C(=O)N[C@@H]([C@@H](C)CC)C(=O)N1C)C(N)=O) [LIC+SRS-((tBu)A)-PPI-((N-Me)C)+I-NH2] in your reply.
98

Supply measured human MASP2 IC50 of [Nva]ICSRS[tBuAla]PPI[Pen]IPD-NH2 (disulfide 3-11; N-terminus assumed; SMILES CCC[C@H](N)C(=O)N[C@H](C(=O)N[C@H]1CSSC(C)(C)[C@@H](C(=O)N[C@H](C(=O)N2CCC[C@H]2C(=O)N[C@@H](CC(=O)O)C(N)=O)[C@@H](C)CC)NC(=O)[C@H]([C@@H](C)CC)NC(=O)[C@@H]2CCCN2C(=O)[C@@H]2CCCN2C(=O)[C@H](CC(C)(C)C)NC(=O)[C@H](CO)NC(=O)[C@H](CCCNC(=N)N)NC(=O)[C@H](CO)NC1=O)[C@@H](C)CC) [(Nva)-IC+SRS-((tBu)A)-PPI-(Pen)+IPD-NH2] in your reply.
51

Supply measured human MASP2 IC50 of [NMeA]ICSRSLP[Oic]I[Pen]I-OH (disulfide 3-11; N-terminus assumed; SMILES CC[C@H](C)[C@H](NC(=O)[C@H]1NC(=O)[C@H]([C@@H](C)CC)NC(=O)[C@@H]2C[C@@H]3CCCC[C@@H]3N2C(=O)[C@@H]2CCCN2C(=O)[C@H](CC(C)C)NC(=O)[C@H](CO)NC(=O)[C@H](CCCNC(=N)N)NC(=O)[C@H](CO)NC(=O)[C@@H](NC(=O)[C@@H](NC(=O)[C@H](C)NC)[C@@H](C)CC)CSSC1(C)C)C(=O)O) [((N-Me)A)-IC+SRSLP-(Oic)-I-(Pen)+I-OH] in your reply.
410

Supply measured human MASP2 IC50 of [NMeA]ICSRSLP[Oic]I[Pen]IPQ-NH2 (disulfide 3-11; N-terminus assumed; SMILES CC[C@H](C)[C@H](NC(=O)[C@H](C)NC)C(=O)N[C@H]1CSSC(C)(C)[C@@H](C(=O)N[C@H](C(=O)N2CCC[C@H]2C(=O)N[C@@H](CCC(N)=O)C(N)=O)[C@@H](C)CC)NC(=O)[C@H]([C@@H](C)CC)NC(=O)[C@@H]2C[C@@H]3CCCC[C@@H]3N2C(=O)[C@@H]2CCCN2C(=O)[C@H](CC(C)C)NC(=O)[C@H](CO)NC(=O)[C@H](CCCNC(=N)N)NC(=O)[C@H](CO)NC1=O) [((N-Me)A)-IC+SRSLP-(Oic)-I-(Pen)+IPQ-NH2] in your reply.
190
